- System: NCI-H522
- ASSAY_COMMENT: relative viability (nuclei count vs DMSO), 5 days (fraction); higher = more cells survive
- ASSAY_CONDITIONS: first compound 4 µM
RECORDED_ENDPOINT: relative viability
Form: value (number only, do not type unit).

[
  {
    "MOLECULE": "C[C@@H]1CN(CC(=O)Nc2ccc3c(c2)Cc2cccc(-c4cc(=O)cc(N5CCOCC5)o4)c2S3)C[C@H](C)O1 + Cc1cc(Nc2cc(N3CCN(C)CC3)nc(Sc3ccc(NC(=O)C4CC4)cc3)n2)n[nH]1 [Tozasertib] (partner 0.1 µM)",
    "VALUE_REPORTED": 0.557
  },
  {
    "MOLECULE": "COc1cc(N2CCC(C(N)=O)CC2)ccc1Nc1nc(N)c(Cl)c(Nc2ccccc2S(=O)(=O)C(C)C)n1 [HG-5-88-01] + CC(=O)c1c(C)c2cnc(Nc3ccc(N4CCNCC4)cn3)nc2n(C2CCCC2)c1=O [Palbociclib] (partner 0.5 µM)",
    "VALUE_REPORTED": 0.851
  }
]

Noted for C[C@@H]1CN(CC(=O)Nc2ccc3c(c2)Cc2cccc(-c4cc(=O)cc(N5CCOCC5)o4)c2S3)C[C@H](C)O1 + Cc1nc(Nc2ncc(C(=O)Nc3c(C)cccc3Cl)s2)cc(N2CCN(CCO)CC2)n1 [Dasatinib] (partner 0.075 µM) : its relative viability reads 0.828

====

Catalogue of relative viability readings, one per entry.
- System: NCI-H661
- ASSAY_COMMENT: relative viability (nuclei count vs DMSO), 5 days (fraction); higher = more cells survive
- ASSAY_CONDITIONS: first compound 0.01 µM
Form: value (number only, do not type unit).

Illustrative cases are given below, each with its answer.
[
  {
    "MOLECULE": "CC(C)Oc1cc(Nc2nc(N[C@@H](C)c3ccc(F)cn3)ncc2Cl)n[nH]1 [AZ23] + CC(C)C[C@H](NC(=O)[C@H](Cc1ccccc1)NC(=O)c1cnccn1)B(O)O [Bortezomib] (partner 0.002 µM)",
    "VALUE_REPORTED": 0.828
  },
  {
    "MOLECULE": "CC(C)Oc1cc(Nc2nc(N[C@@H](C)c3ccc(F)cn3)ncc2Cl)n[nH]1 [AZ23] + O=C(CCCCCCC(=O)Nc1ccccc1)NO [Vorinostat] (partner 1 µM)",
    "VALUE_REPORTED": 0.814
  },
  {
    "MOLECULE": "CC(C)Oc1cc(Nc2nc(N[C@@H](C)c3ccc(F)cn3)ncc2Cl)n[nH]1 [AZ23] + Cc1nc(NC(=O)N2CCC[C@H]2C(N)=O)sc1-c1ccnc(C(C)(C)C(F)(F)F)c1 [Alpelisib] (partner 2 µM)",
    "VALUE_REPORTED": 0.629
  }
]

For the next question, use this molecule.
Noted for CC(C)Oc1cc(Nc2nc(N[C@@H](C)c3ccc(F)cn3)ncc2Cl)n[nH]1 [AZ23] + CS(=O)(=O)CCNCc1ccc(-c2ccc3ncnc(Nc4ccc(OCc5cccc(F)c5)c(Cl)c4)c3c2)o1 [Lapatinib] (partner 2 µM) : its relative viability reads 0.432

====

Catalogue of relative viability readings, one per entry.
- Test system: NCI-H2228
- ASSAY_COMMENT: relative viability (nuclei count vs DMSO), 5 days (fraction); higher = more cells survive
- ASSAY_CONDITIONS: first compound 2.53 µM
Form: value (number only, do not type unit).

[
  {
    "MOLECULE": "CCCCCCCCCCCC1=C(O)C(=O)C=C(O)C1=O [Embelin] + CS(=O)(=O)N1CCN(Cc2cc3nc(-c4cccc5[nH]ncc45)nc(N4CCOCC4)c3s2)CC1 [Pictilisib] (partner 1 µM)",
    "RECORDED_ENDPOINT": "relative viability",
    "VALUE_REPORTED": 0.457
  }
]

Noted for CCCCCCCCCCCC1=C(O)C(=O)C=C(O)C1=O [Embelin] + COc1cccc2cc(-c3nc([C@H]4CC[C@H](C(=O)O)CC4)n4ncnc(N)c34)[nH]c12 [OSI-027] (partner 0.5 µM) : its relative viability reads 0.726

Noted for CCCCCCCCCCCC1=C(O)C(=O)C=C(O)C1=O [Embelin] + Nc1nc2[nH]cc(CCc3ccc(C(=O)N[C@@H](CCC(=O)O)C(=O)O)cc3)c2c(=O)[nH]1 [Pemetrexed] (partner 0.2 µM) : its relative viability reads 0.345

Noted for CCCCCCCCCCCC1=C(O)C(=O)C=C(O)C1=O [Embelin] + Cc1nc(NC(=O)N2CCC[C@H]2C(N)=O)sc1-c1ccnc(C(C)(C)C(F)(F)F)c1 [Alpelisib] (partner 2 µM) : its relative viability reads 0.793

Noted for CCCCCCCCCCCC1=C(O)C(=O)C=C(O)C1=O [Embelin] + O=C(c1cc(Cc2n[nH]c(=O)c3ccccc23)ccc1F)N1CCN(C(=O)C2CC2)CC1 [Olaparib] (partner 8 µM) : its relative viability reads 0.735

Noted for CCCCCCCCCCCC1=C(O)C(=O)C=C(O)C1=O [Embelin] + CC(C)C[C@H](NC(=O)[C@H](Cc1ccccc1)NC(=O)c1cnccn1)B(O)O [Bortezomib] (partner 0.002 µM) : its relative viability reads 1.29

====

- Test system: NCI-H522
- ASSAY_COMMENT: relative viability (nuclei count vs DMSO), 5 days (fraction); higher = more cells survive
- ASSAY_CONDITIONS: first compound 0.4 µM
RECORDED_ENDPOINT: relative viability

Illustrative cases are given below, each with its answer.
[
  {
    "MOLECULE": "Clc1ccc(Nc2nnc(Cc3ccncc3)c3ccccc23)cc1 [Vatalanib] + Cc1nc(Nc2ncc(C(=O)Nc3c(C)cccc3Cl)s2)cc(N2CCN(CCO)CC2)n1 [Dasatinib] (partner 0.075 µM)",
    "TEST_SYSTEM": "NCI-H522",
    "relative viability": 0.912
  },
  {
    "MOLECULE": "COc1cc(N2CCC(C(N)=O)CC2)ccc1Nc1nc(N)c(Cl)c(Nc2ccccc2S(=O)(=O)C(C)C)n1 [HG-5-88-01] + CC(=O)c1c(C)c2cnc(Nc3ccc(N4CCNCC4)cn3)nc2n(C2CCCC2)c1=O [Palbociclib] (partner 0.5 µM)",
    "TEST_SYSTEM": "NCI-H522",
    "relative viability": 1.01
  },
  {
    "MOLECULE": "C[C@@H]1CN(CC(=O)Nc2ccc3c(c2)Cc2cccc(-c4cc(=O)cc(N5CCOCC5)o4)c2S3)C[C@H](C)O1 + O=C(CCCCCCC(=O)Nc1ccccc1)NO [Vorinostat] (partner 1 µM)",
    "TEST_SYSTEM": "NCI-H522",
    "relative viability": 0.876
  }
]

Noted for Clc1ccc(Nc2nnc(Cc3ccncc3)c3ccccc23)cc1 [Vatalanib] + Nc1ncn([C@H]2C[C@H](O)[C@@H](CO)O2)c(=O)n1 [Decitabine] (partner 2 µM) : its relative viability reads 0.698

Noted for C[C@@H]1CN(CC(=O)Nc2ccc3c(c2)Cc2cccc(-c4cc(=O)cc(N5CCOCC5)o4)c2S3)C[C@H](C)O1 + Nc1ncn([C@H]2C[C@H](O)[C@@H](CO)O2)c(=O)n1 [Decitabine] (partner 2 µM) : its relative viability reads 0.641

Noted for Clc1ccc(Nc2nnc(Cc3ccncc3)c3ccccc23)cc1 [Vatalanib] + NC(=O)Nc1cc(-c2cccc(F)c2)sc1C(=O)N[C@H]1CCCNC1 [AZD7762] (partner 0.2 µM) : its relative viability reads 0.777

Noted for C[C@@H]1CN(CC(=O)Nc2ccc3c(c2)Cc2cccc(-c4cc(=O)cc(N5CCOCC5)o4)c2S3)C[C@H](C)O1 + CC(=O)c1c(C)c2cnc(Nc3ccc(N4CCNCC4)cn3)nc2n(C2CCCC2)c1=O [Palbociclib] (partner 0.5 µM) : its relative viability reads 1.06

====

Catalogue of relative viability readings, one per entry.
- Tested on: H3255
- ASSAY_COMMENT: relative viability (nuclei count vs DMSO), 5 days (fraction); higher = more cells survive
- ASSAY_CONDITIONS: first compound 2.53 µM
Form: value (number only, do not type unit).

Illustrative cases are given below, each with its answer.
[
  {
    "COMPOUND": "CCCCCCCCCCCC1=C(O)C(=O)C=C(O)C1=O [Embelin] + CS(=O)(=O)N1CCN(Cc2cc3nc(-c4cccc5[nH]ncc45)nc(N4CCOCC4)c3s2)CC1 [Pictilisib] (partner 1 µM)",
    "VALUE_REPORTED": 0.512
  },
  {
    "COMPOUND": "CCCCCCCCCCCC1=C(O)C(=O)C=C(O)C1=O [Embelin] + C[C@]1(O)C[C@@H](c2nc(-c3ccc4ccc(-c5ccccc5)nc4c3)c3c(N)nccn32)C1 [Linsitinib] (partner 1 µM)",
    "VALUE_REPORTED": 0.931
  },
  {
    "COMPOUND": "CCCCCCCCCCCC1=C(O)C(=O)C=C(O)C1=O [Embelin] + CCNC(=O)c1noc(-c2cc(C(C)C)c(O)cc2O)c1-c1ccc(CN2CCOCC2)cc1 [Luminespib] (partner 0.01 µM)",
    "VALUE_REPORTED": 0.935
  },
  {
    "COMPOUND": "CCCCCCCCCCCC1=C(O)C(=O)C=C(O)C1=O [Embelin] + CS(=O)(=O)CCNCc1ccc(-c2ccc3ncnc(Nc4ccc(OCc5cccc(F)c5)c(Cl)c4)c3c2)o1 [Lapatinib] (partner 2 µM)",
    "VALUE_REPORTED": 0.234
  },
  {
    "COMPOUND": "CCCCCCCCCCCC1=C(O)C(=O)C=C(O)C1=O [Embelin] + O=C(CCCCCCC(=O)Nc1ccccc1)NO [Vorinostat] (partner 1 µM)",
    "VALUE_REPORTED": 0.711
  }
]

Noted for CCCCCCCCCCCC1=C(O)C(=O)C=C(O)C1=O [Embelin] + CC1(C)CCC(c2ccc(Cl)cc2)=C(CN2CCN(c3ccc(C(=O)NS(=O)(=O)c4ccc(N[C@H](CCN5CCOCC5)CSc5ccccc5)c(S(=O)(=O)C(F)(F)F)c4)cc3)CC2)C1 [Navitoclax] (partner 0.5 µM) : its relative viability reads 0.551
